# Test system: HAB1
# Assay explanation: Yeast two hybrid of pBD-PYR1 site saturation mutants with pACT-HAB1 on 10 μM ABA, β-galactosidase staining
# Assay type: cell-based, Arabidopsis
# Parameters: key: x: Mutations in PYR1 that disrupt ABA-induced binding to PYR1 to HAB1
# Test parameters: S. cerevisiae Y190, 10 μM ABA; dead = lack of visible staining in comparison to wild type control
Measurement kind: Mutations in PYR1 that disrupt ABA-induced binding to PYR1 to HAB1

{"Molecule": "T156R: PYR1 mutant (protein, UniProt O49686 1-191, looked up, variant T156R) Abscisic acid receptor PYR1: MPSELTPEERSELKNSIAEFHTYQLDPGSCSSLHAQRIHAPPELVWSIVRRFDKPQTYKHFIKSCSVEQNFEMRVGCTRDVIVISGLPANTSTERLDILDDERRVTGFSIIGGEHRLTNYKSVTTVHRFEKENRIWTVVLESYVVDMPEGNSEDDRRMFADTVVKLNLQKLATVAEAMARNSGDGSGSQVT", "Observed": "x"}
{"Molecule": "P88Q: PYR1 mutant (protein, UniProt O49686 1-191, looked up, variant P88Q) Abscisic acid receptor PYR1: MPSELTPEERSELKNSIAEFHTYQLDPGSCSSLHAQRIHAPPELVWSIVRRFDKPQTYKHFIKSCSVEQNFEMRVGCTRDVIVISGLQANTSTERLDILDDERRVTGFSIIGGEHRLTNYKSVTTVHRFEKENRIWTVVLESYVVDMPEGNSEDDTRMFADTVVKLNLQKLATVAEAMARNSGDGSGSQVT", "Observed": "x"}
{"Molecule": "G86S: PYR1 mutant (protein, UniProt O49686 1-191, looked up, variant G86S) Abscisic acid receptor PYR1: MPSELTPEERSELKNSIAEFHTYQLDPGSCSSLHAQRIHAPPELVWSIVRRFDKPQTYKHFIKSCSVEQNFEMRVGCTRDVIVISSLPANTSTERLDILDDERRVTGFSIIGGEHRLTNYKSVTTVHRFEKENRIWTVVLESYVVDMPEGNSEDDTRMFADTVVKLNLQKLATVAEAMARNSGDGSGSQVT", "Observed": "x"}

Origin of the recorded values: patent US10919943B2
